This collection of values is drawn from patent US9029356B2.

The reader will find reported IC50 values listed item by item below.
target: UniProt:Q9UM73; experiment: Biochemical assay for inhibitors of ALK kinase activity; conditions: 20 nM enzyme, 8 microM ATP, 2 microM MBP
Sequence (Q9UM73 1060-1620): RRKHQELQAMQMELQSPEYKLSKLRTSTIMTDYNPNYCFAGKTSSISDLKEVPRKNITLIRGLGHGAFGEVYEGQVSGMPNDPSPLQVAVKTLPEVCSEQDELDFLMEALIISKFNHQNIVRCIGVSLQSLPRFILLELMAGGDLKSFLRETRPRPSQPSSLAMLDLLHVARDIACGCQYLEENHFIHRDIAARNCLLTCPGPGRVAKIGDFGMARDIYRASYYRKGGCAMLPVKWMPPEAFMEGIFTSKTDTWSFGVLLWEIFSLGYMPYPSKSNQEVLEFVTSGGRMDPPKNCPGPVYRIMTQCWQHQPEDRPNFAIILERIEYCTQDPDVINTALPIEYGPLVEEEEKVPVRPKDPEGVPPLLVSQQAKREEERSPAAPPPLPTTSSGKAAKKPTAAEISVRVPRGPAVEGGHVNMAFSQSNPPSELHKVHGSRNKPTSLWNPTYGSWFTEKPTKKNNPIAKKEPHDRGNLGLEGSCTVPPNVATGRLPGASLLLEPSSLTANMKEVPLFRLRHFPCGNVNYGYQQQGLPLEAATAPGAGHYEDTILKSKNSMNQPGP
Provide the reading as a plain figure in µM.

smiles_entry	unit_symbol	numeric_value
CN1CCN(c2ccc(C(=O)Nc3n[nH]c4ccc(Cc5cc(F)cc(F)c5)cc34)c(NC3CCCCC3)c2)CC1	µM	1.77

Q. Please give measured IC50 of the following entry: CN1CCN(c2ccc(C(=O)Nc3n[nH]c4ccc(Cc5cc(F)cc(F)c5)cc34)cc2)CC1
A. 0.207

Q. Please give measured IC50 of the following entry: COCCNc1cc(N2CCN(C)CC2)ccc1C(=O)Nc1n[nH]c2ccc(Cc3cc(F)cc(F)c3)cc12
A. 0.411
